Numbers sourced from patent US4900539A.

- Assay remarks: Tissue distribution of 5-halothiophene-2-isopropylamines in Fisher rats (brain uptake and brain:blood)
- Format: in vivo
- Applied conditions: rat, brain, 30 min, read-out: Mean Brain, % Dose/gm
Assay endpoint: tissue uptake at 0.5 h (%ID/g)
Give the value in %ID/g but do not write %ID/g after it.

Which tissue uptake at 0.5 h reading was recorded for the molecule CC(N)Cc1ccc([82Br])s1 (centres unmarked) ?
2.3

Can you share its tissue uptake at 0.5 h? I mean this molecule: CC(N)Cc1ccc([125I])s1 (centres unmarked)
2.51

---

# tissue uptake at 5 min listing for each entry below
- Assay remarks: Tissue distribution of 5-halothiophene-2-isopropylamines in Fisher rats (brain uptake and brain:blood)
- Format: in vivo
- Applied conditions: rat, brain, 5 min, read-out: Mean Brain, % Dose/gm
Give a bare numeral; the unit %ID/g is implied.

Compound	Unit descriptor	tissue uptake at 5 min
CC(N)Cc1ccc([82Br])s1 (centres unmarked)	%ID/g	2.7

Kindly review the next compound as well.
May I ask what tissue uptake at 5 min has been recorded for CC(N)Cc1ccc([125I])s1 (centres unmarked) ?
2.77

---

- Assay remarks: Tissue distribution of 5-halothiophene-2-isopropylamines in Fisher rats (brain uptake and brain:blood)
- Assay type: in vivo
- Applied conditions: rat, brain, 60 min, read-out: Mean Brain, % Dose/gm
Assay endpoint: tissue uptake at 1 h (%ID/g)
Number only, in %ID/g; omit the unit.

Molecule	tissue uptake at 1 h [%ID/g]
CC(N)Cc1ccc([125I])s1 (centres unmarked) [I--125]	1.42

Attention now shifts to the item below.
Which tissue uptake at 1 h is listed for CC(N)Cc1ccc([82Br])s1 (centres unmarked) [Br--82] ?
1.67
